# System: HL-60(TB) leukemia
# method: NCI-60 one-dose screen, 48 h
# run-parameters: 10 µM unless noted
About 83,000 compounds went through this panel and 20% of them were active in at least one assay; those are over-represented in the sample as a whole. Active and inactive are the calls of the source. The calls were made as follows: active = growth percent below 10; inactive = the rest.
Answer with one of the outcomes given here: true (1) (active), false (0) (inactive)

Worked set:
CCOP(=O)(OCC)/C(C#N)=C/c1c(C)[nH]c2ccccc12: false (0)
COc1ccc(C2=C/C(=C\c3ccc(Cl)cc3)C(=O)NN2C(=S)NN)cc1: false (0)
CC(CC(C#N)(c1ccccc1)c1ccccc1)N1CCOCC1 (stereo not given): false (0)
Cc1nn(-c2ccccc2)c(N)c1N=C1NC(=O)/C(=C/c2ccc(Cl)cc2)S1: false (0)
COc1cc(NS(C)(=O)=O)ccc1Nc1c2ccc([N+](=O)[O-])cc2nc2c(C)cccc12: true (1)

Ask: Given `COc1ccc2c(c1)c(-c1nonc1-c1c[nH]c3ccc(Br)cc13)cn2C` , state the outcome it received in this test.
Reply: false (0)

Ask: Given CCCCC/C(=C\c1ccccc1)C1OC(C)C(C)O1 (stereo not given) , state the outcome it received in this test.
Reply: false (0)

Ask: Given `COc1ccc(NC(=O)Nc2ccc(-c3ccc(OC)c(OC)c3)nc2C)cc1` , state the outcome it received in this test.
Reply: false (0)
